Test system: NCI-H460
Experiment: relative viability (nuclei count vs DMSO), 5 days (fraction); higher = more cells survive
Conditions: first compound 0.3162 µM
Quick reference: relative viability of the listed items.
resultType: relative viability

INSERT INTO assay_data (molecule, assayresult) VALUES
  ('CC(C)Oc1cc(Nc2nc(N[C@@H](C)c3ccc(F)cn3)ncc2Cl)n[nH]1 [AZ23] + CS(=O)(=O)CCNCc1ccc(-c2ccc3ncnc(Nc4ccc(OCc5cccc(F)c5)c(Cl)c4)c3c2)o1 [Lapatinib] (partner 2 µM)', 1.5),
  ('CC(C)Oc1cc(Nc2nc(N[C@@H](C)c3ccc(F)cn3)ncc2Cl)n[nH]1 [AZ23] + COc1cccc2cc(-c3nc([C@H]4CC[C@H](C(=O)O)CC4)n4ncnc(N)c34)[nH]c12 [OSI-027] (partner 0.5 µM)', 0.885),
  ('CC(C)Oc1cc(Nc2nc(N[C@@H](C)c3ccc(F)cn3)ncc2Cl)n[nH]1 [AZ23] + Nc1nc2[nH]cc(CCc3ccc(C(=O)N[C@@H](CCC(=O)O)C(=O)O)cc3)c2c(=O)[nH]1 [Pemetrexed] (partner 0.2 µM)', 0.0611),
  ('CC(C)Oc1cc(Nc2nc(N[C@@H](C)c3ccc(F)cn3)ncc2Cl)n[nH]1 [AZ23] + O=C(c1cc(Cc2n[nH]c(=O)c3ccccc23)ccc1F)N1CCN(C(=O)C2CC2)CC1 [Olaparib] (partner 8 µM)', 0.481);
